// provenance: paper PMC12204359

- tested_target: T1, clathrin heavy chain minimal ankle region (CHC^ankle, aa 358–574) (human, UniProt Q00610 358-574)
- T1 chain: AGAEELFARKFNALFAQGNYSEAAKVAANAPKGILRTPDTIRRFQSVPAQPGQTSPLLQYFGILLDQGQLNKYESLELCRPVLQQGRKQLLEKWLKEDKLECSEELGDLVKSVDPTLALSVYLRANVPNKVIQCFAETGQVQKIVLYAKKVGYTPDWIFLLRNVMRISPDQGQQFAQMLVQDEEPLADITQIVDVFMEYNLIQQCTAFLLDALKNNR
- test_details: FP
No end group written: not given here. FAM = 5(6)-carboxyfluorescein
parameter_measured: pKd
pKd (log units): -log10 of the concentration in mol/L.

Please fill in: pKd reported for {FAM}-KESALRKQDLYLKFDPLLR [WT TACC3 S558D] = 3.47
